Origin of the recorded values: PubChem BioAssay (NCI)

Tested on: HCC-2998 colon
Assay: NCI tumour cell line growth inhibition, 48 h
Each entry below carries its reported TGI.
reportedEndpoint: TGI

compound	valueObserved
COc1cc(O)c2c(c1)C(O)C(O)CC1OC1C(=O)/C=C/CC(C)OC2=O (stereo not given)	16.7 µM
Cc1cnc2[nH]c(-c3ccccc3)cc(=O)c2c1	1.96 µM
CC(C)C[C@H](NC(=O)[C@@H](O)[C@H](N)Cc1ccccc1)C(=O)O	> 100 µM
COc1cc2c(cc1OC)[C@H]1C(=O)c3cc4c(cc3[C@H]1N(C)C2=O)OCO4	> 100 µM
O=C(CCN1CCCCC1CO)Nc1ccc2c(c1)C(=O)c1ccc(NC(=O)CCN3CCCCC3CO)cc1C2=O (stereo not given)	20.8 µM
CCOC(=O)Cc1nc2c(=O)[nH]cnc2n1C1OC(COC(C)=O)C(OC(C)=O)C1OC(C)=O (stereo not given)	> 100 µM
COC1(OC)/C(=C(\N)C=O)NC(C)(C)N1O	> 100 µM
C=C1C(=O)C[C@@]23CCC[C@@]12CC(O)C3 (stereo not given in full)	> 62.1 µM
CCCCCCN1C(=O)CN=C1Nc1ccc2cc3ccc(NC4=NCC(=O)N4CCCCCC)cc3nc2c1	3.04 µM
C[C@@H](C[C@@H](O)[C@H](O)C(C)(C)O)[C@H]1CC=C2[C@]3(C)[C@H](O)C[C@H]4C(C)(C)[C@H](O)CC[C@]4(C)[C@H]3CC[C@@]21C	37.9 µM
CN(C)c1ccc(Sc2ccc3nc(N)nc(N)c3c2)cc1	4.84 µM
O=c1c2cc(F)ccc2sc2c(NCCCN3CCCC3)nc3ccccc3c12	3.25 µM
Cc1ccc(OCCCCCCNCCO)c(C)c1	30.2 µM
C=C(CCC(C(=O)O)C1CCC2(C)C3=C(CCC12C)C1(C)CCC(O)C(C)(C)C1CC3)C(C)C (stereo not given)	> 100 µM
COC(=O)C(=O)C(C(=O)C(=O)Nc1ccccc1C(N)=O)c1nc2ccc(C(=O)c3ccccc3)cc2[nH]c1=O (stereo not given)	> 100 µM
COc1ccc(C[C@H]2COC(=O)[C@@H]2Cc2cc(OC)c(OC)c(OC)c2)cc1OC	> 100 µM
COc1cc2c(cc1OC)C1Cc3ccccc3CN1CCC2 (stereo not given)	> 100 µM
COC(=O)Nc1nc2ccc(Sc3ccc(NC(=O)Nc4cc(C(F)(F)F)ccc4F)cc3)cc2[nH]1	13.1 µM
COC(=O)C(Cc1ccccc1)NC(=O)CCCNC(=O)OCc1ccccc1 (stereo not given)	> 100 µM
CCOc1cc(C=O)ccc1O	> 100 µM

====

Each entry below carries its reported TGI.
Test system: SNB-75 CNS
Experiment: NCI tumour cell line growth inhibition, 48 h

molecule	studyTarget	unitsText	TGI
O=C(CCCN1CCc2[nH]c3cc(F)ccc3c2C1)c1ccc(F)cc1	SNB-75 CNS	µM	22.9
C/C(=N\NC(=S)N1CCC(C2CCN(C(=S)N/N=C(\C)c3ccccn3)CC2)CC1)c1ccccn1	SNB-75 CNS	µM	67.4
Cn1c(COC(=O)NCCN2CCOCC2)nc2c(N3CCOCC3)nc(-c3ccccc3)nc21	SNB-75 CNS	µM	2.67
Nc1ncnc2c1ncn2Cc1ccc(C23CC4CC(CC(C4)C2)C3)c(O)c1	SNB-75 CNS	µM	40
Cc1ccc(OCCCCCCNCCO)c(C)c1	SNB-75 CNS	µM	20.1
CC(=O)N[C@@H]1CCC[C@H](C(=O)Nc2cc(-c3cnn4c3CC(C)(C)C4)c(Cl)cn2)C1	SNB-75 CNS	µM	0.029
Cc1nn(C(=O)c2ccccc2O)c2c1C(c1ccc(O)cc1)SC(N)=N2 (configuration not stated)	SNB-75 CNS	µM	8.56
CC[C@@]1(O)C(=O)OCc2c1cc1n(c2=O)Cc2cc3c(NC(C)=O)c(O)ccc3nc2-1	SNB-75 CNS	µM	7.31
CN1C(=O)C23CC4=CC=CC(O)C4N2C(=O)C1(CO)SS3 (configuration not stated)	SNB-75 CNS	µM	0.382

====

System: MDA-MB-435
Where a SMILES comes first, the peptide text is derived from it. The star is where a group is joined. Palmitoyl = CCCCCCCCCCCCCCCC(=O)*
Possible outcomes: YES for active, NO for inactive

compound	group
O=c1c2cc(F)ccc2sc2c(NCCCN3CCCC3)nc3ccccc3c12	NO
CCCCCCCCCCCCNC(=O)[C@H]1CSC(c2ccc(OC)c(F)c2)N1 (some centres undefined)	YES
C#Cc1cccc(Nc2ncnc3ccc(-c4cncc(NS(C)(=O)=O)c4)cc23)c1	NO
CCCCCCCCCCCCCCCC(=O)NC(CCCCN)C(=O)NCC(=O)NC(Cc1ccccc1)C(=O)N1CCCC1C(=O)NC(CO)C(=O)NC(Cc1ccc(O)cc1)C(=O)NC(CCCCN)C(=O)NC(CC(C)C)C(=O)NC(CCCN=C(N)N)C(=O)N1CCCC1C(=O)NCC(N)=O (centres undefined) (Palmitoyl-KGFPSYKLRPG-NH2; configuration not given here)	NO

====

Each entry below carries its reported TGI.
Test system: DU-145 prostate
Test: NCI tumour cell line growth inhibition, 48 h
reportedEndpoint: TGI

compound	studyTarget	reportedEndpoint	valueObserved
O=c1[nH]c(-c2ccccn2)nc2sc3c(c12)CCCCCC3	DU-145 prostate	TGI	> 100 µM
COCCCN1C(=O)C2c3[nH]c4ccccc4c3C3CCC(C(C)(C)C)CC3C2C1=O (stereo unspecified)	DU-145 prostate	TGI	> 100 µM
COc1ccc(NC(=O)C2=C(SC)C(=O)N=C2N)cc1	DU-145 prostate	TGI	> 100 µM
c1ccc(COc2ncccc2C2SCCCS2)cc1	DU-145 prostate	TGI	> 100 µM
CC(C)(C)NCCC(O)c1cc(C(F)(F)F)nc2c(C(F)(F)F)cccc12 (stereo unspecified)	DU-145 prostate	TGI	6.17 µM
COc1cc(C2c3cc4c(cc3[C@@H](Nc3cccc(O)c3)C3COC(=O)[C@H]23)OCO4)cc(OC)c1O (stereo partly specified)	DU-145 prostate	TGI	1.75 µM
CN1C(=O)[C@@]2(C=CC3(CC2)OCCO3)c2ccccc21	DU-145 prostate	TGI	> 50 µM
CCOP(=O)(OCC)C(F)(F)CC1CCCCC1	DU-145 prostate	TGI	> 10 µM
OCCCCC#Cc1ccccc1C#Cc1cnccn1	DU-145 prostate	TGI	> 100 µM
CCCCC(=C=C1CCCCC1O)C1CCCN1C(=O)OC(C)(C)C (stereo unspecified)	DU-145 prostate	TGI	31.4 µM
CN(Cc1nc2c(N)nc(N)nc2nc1N)c1ccc(C(=O)NC(CCC(=O)O)C(=O)O)cc1 (stereo unspecified)	DU-145 prostate	TGI	> 100 µM

====

Tested on: OVCAR-8 ovarian
Assay: NCI tumour cell line growth inhibition, 48 h; in the data active = GI50 below about 0.43 µM; inactive = the rest
Where a SMILES comes first, the peptide text is derived from it. The star is where a group is joined. Palmitoyl = CCCCCCCCCCCCCCCC(=O)*
Possible outcomes: active, inactive

molecule	group
CC1SC2(CCCCC2)N(NC(=O)c2[nH]c3ccc(F)cc3c2-c2ccccc2)C1=O (configuration not stated)	inactive
CCC1(N2C(=O)c3c(F)c(F)c(F)c(F)c3C2=O)C(=O)NC(=O)N(c2ccccc2)C1=O (configuration not stated)	inactive
COc1ncnc2c(-c3ccco3)cn(COCc3ccccc3)c12	inactive
CCCCCCCCCCCCCCCC(=O)NC(CCCCN)C(=O)NCC(=O)NC(Cc1ccccc1)C(=O)N1CCCC1C(=O)NC(CO)C(=O)NC(Cc1ccc(O)cc1)C(=O)NC(CCCCN)C(=O)NC(CC(C)C)C(=O)NC(CCCN=C(N)N)C(=O)N1CCCC1C(=O)NCC(N)=O (configuration not stated) (Palmitoyl-KGFPSYKLRPG-NH2; configuration not given here)	inactive
COc1cc(/C=C\c2cccnc2Nc2ccccc2)cc(OC)c1OC	inactive
C=CC[PH+](c1ccccc1)c1ccccc1.C=CC[PH+](c1ccccc1)c1ccccc1.[Cl][Pt][Cl]	inactive
O=[N+]([O-])O.[NH-]C1CCCCC1[NH-].[NH-]C1CCCCC1[NH-].[NH-]C1CCCCC1[NH-].[OH-].[OH-].[OH-].[Pt+4].[Pt+4].[Pt+4] (configuration not stated)	active

====

Test system: DU-145 prostate
Assay: NCI tumour cell line growth inhibition, 48 h
reportedEndpoint: GI50

compound	studyTarget	reportedEndpoint	valueObserved
C[C@]12CC[C@@H]3c4ccc(O)cc4CC[C@H]3[C@@H]1CC[C@@H]2NS(=O)(=O)c1ccc(-c2ccccc2)cc1	DU-145 prostate	GI50	6.54 µM
CCSc1nc(N)c2cnn(C)c2n1	DU-145 prostate	GI50	40 µM
COc1ccc(-n2nc(C)c3c2N(C)C2(C)C[C@@H]4C3(C)[C@@H]3CC4(C2)N(C)c2c(c(C)nn2-c2ccc(OC)cc2)[C@H]3C)cc1 (some centres undefined)	DU-145 prostate	GI50	23 µM
CN(C)c1ccc(Sc2ccc3nc(N)nc(N)c3c2)cc1	DU-145 prostate	GI50	0.793 µM
